meta.source: paper PMC7471454

Below are molecules with their IC50 as measured on UniProt Q15858.
Please state the figure in nM; there is no need to write the unit.

Illustrative cases are given below, each with its answer.
MOLECULE	MEASURED_TARGET	VALUE_UNITS	IC50
CN1CC(OCC(CCC23CCC(c4ccccc42)c2ccccc23)Oc2ccc(S(=O)(=O)Nc3ncns3)cc2C#N)C1 (stereo not shown) [10m]	UniProt Q15858	nM	2.98
N#Cc1cc(S(=O)(=O)Nc2ncns2)ccc1OC(CCC12CCC(c3ccccc31)c1ccccc12)COCCN1CCCCC1 (stereo not shown) [10p]	UniProt Q15858	nM	12.5
N#Cc1cc(S(=O)(=O)Nc2ncns2)ccc1OC(CCC12CCC(c3ccccc31)c1ccccc12)COCCN1CCOCC1 (stereo not shown) [10q]	UniProt Q15858	nM	33.5
N#Cc1cc(S(=O)(=O)Nc2ncns2)ccc1OC(CCC12CCC(c3ccccc31)c1ccccc12)COCCN1CCC1 (stereo not shown) [10n]	UniProt Q15858	nM	5.38

Attention now turns to another entry.
The measured IC50 that N#Cc1cc(S(=O)(=O)Nc2ncns2)ccc1OC(CCC12CCC(c3ccccc31)c1ccccc12)COCCN1CCCC1 (stereo not shown) [10o] showed for UniProt Q15858 is 0.64
